Data provenance: ChEMBL document CHEMBL1137288

- Test system: L6
- protocol-details: Cytotoxicity against L6 cells
- Type: cell-based
- test-settings: Rattus norvegicus
observable: pIC50
When answering, recall that pIC50 equals minus log10 of the concentration in mol/L, and write that number alone.

Q. Which pIC50 reading was recorded for the compound O=C1CC2(N3CCCC3)CC(c3ccccc3)C1C(c1ccccc1)C2 (centres undefined) ?
A. 4.58

Q. Okay, and CN(C)C12C/C(=N\O)C(C(c3ccc(Cl)cc3)C1)C(c1ccc(Cl)cc1)C2 (centres undefined) ?
A. 5.11

Q. Okay, and OC1CC2(N3CCCCC3)CC(c3ccccc3)C1C(c1ccccc1)C2 (centres undefined) ?
A. 4.43

Q. Okay, and Cc1ccc(C(=O)Nc2ccc(S(=O)(=O)O)c3cc(S(=O)(=O)O)cc(S(=O)(=O)O)c23)cc1NC(=O)c1cccc(NC(=O)Nc2cccc(C(=O)Nc3cc(C(=O)Nc4ccc(S(=O)(=O)O)c5cc(S(=O)(=O)O)cc(S(=O)(=O)O)c45)ccc3C)c2)c1 ?
A. 2.33

Q. Okay, and OC1CC2(N3CCCC3)CC(c3ccc(Cl)cc3)C1C(c1ccc(Cl)cc1)C2 (centres undefined) ?
A. 5.44

Q. Okay, and COc1ccc(C2CC3(N4CCCC4)CC(=O)C2C(c2ccc(OC)cc2)C3)cc1 (centres undefined) ?
A. 4.38

Q. Okay, and COc1ccc(C2CC3(N4CCCC4)CC(O)C2C(c2ccc(OC)cc2)C3)cc1 (centres undefined) ?
A. 4.75

Q. Okay, and O/N=C1\CC2(N3CCCCC3)CC(c3ccc(Cl)cc3)C1C(c1ccc(Cl)cc1)C2 (centres undefined) ?
A. 5.06

Q. Okay, and Clc1ccc(C2CC3(N4CCCC4)CCNC2C(c2ccc(Cl)cc2)C3)cc1 (centres undefined) ?
A. 5.00

Q. Okay, and CN(C)C12CC(O)C(C(c3ccccc3)C1)C(c1ccccc1)C2 (centres undefined) ?
A. 3.88

Q. Okay, and CN(C)C12CCNC(C(c3ccc(Cl)cc3)C1)C(c1ccc(Cl)cc1)C2 (centres undefined) ?
A. 5.06

Q. Okay, and O=C1CC2(N3CCCCC3)CC(c3ccccc3)C1C(c1ccccc1)C2 (centres undefined) ?
A. 4.33

Q. Okay, and CN(C)C12CC(O)C(C(c3ccc(Cl)cc3)C1)C(c1ccc(Cl)cc1)C2 (centres undefined) ?
A. 5.06

Q. Okay, and Clc1ccc(C2CC3(N4CCCCC4)CCNC2C(c2ccc(Cl)cc2)C3)cc1 (centres undefined) ?
A. 5.09

Q. Okay, and O/N=C1\CC2(N3CCCCC3)CC(c3ccccc3)C1C(c1ccccc1)C2 (centres undefined) ?
A. 4.62

Q. Okay, and COc1ccc(C2CC3(N(C)C)CC(O)C2C(c2ccc(OC)cc2)C3)cc1 (centres undefined) ?
A. 4.20

Q. Okay, and O=C1CC2(N3CCCCC3)CC(c3ccccc3)C(N1)C(c1ccccc1)C2 (centres undefined) ?
A. 3.63

---

- protocol-details: Selectivity index, IC50 for L6 cells/ IC50 for Trypanosoma brucei rhodesience
- Format: functional
Listed here: items and their measured Ratio IC50.
I'd appreciate a reply containing only the number, no unit.

Here is how some compounds turned out for Ratio IC50.
| compound | observable | endpoint-value |
| --- | --- | --- |
| CN(C)C12CC(=O)NC(C(c3ccccc3)C1)C(c1ccccc1)C2 (configuration not stated) | Ratio IC50 | 7.09 |
| CN(C)C12C/C(=N\O)C(C(c3ccccc3)C1)C(c1ccccc1)C2 (configuration not stated) | Ratio IC50 | 19.61 |
| CN(C)C12CCNC(C(c3ccc(Cl)cc3)C1)C(c1ccc(Cl)cc1)C2 (configuration not stated) | Ratio IC50 | 143.3 |

Q. Which Ratio IC50 reading was recorded for the compound O=C1CC2(N3CCCC3)CC(c3ccccc3)C1C(c1ccccc1)C2 (configuration not stated) ?
A. 3.29

Q. Okay, and O=C1CC2(N3CCCCC3)CC(c3ccccc3)C(N1)C(c1ccccc1)C2 (configuration not stated) ?
A. 6.38

Q. Okay, and O=C1CC2(N3CCCC3)CC(c3ccccc3)C(N1)C(c1ccccc1)C2 (configuration not stated) ?
A. 6.58

Q. Okay, and CN(C)C12CC(O)C(C(c3ccccc3)C1)C(c1ccccc1)C2 (configuration not stated) ?
A. 44.91

Q. Okay, and COc1ccc(C2CC3(N(C)C)CC(=O)C2C(c2ccc(OC)cc2)C3)cc1 (configuration not stated) ?
A. 10.47
